The following binders are shown together with reported fold binding to target pHLA over minipool of negative control pHLAs values.
- Target Or System: HLA-B*35:01_… (HLA-PEPTIDE target G5), recombinant soluble complex (human, UniProt P01889 25-297 at identity 0.94); P61769 21-119, enzymatically biotinylated (BirA) for screening and functional assays)
- Protocol Notes: scFv PPE ELISA

// worked examples, fold binding to target pHLA over minipool of negative control pHLAs included
query: # get_value(readout='fold binding to target pHLA over minipool of negative control pHLAs', item= scFv G5-P4B02 (scFv, V domains shown) VH: QVQLVQSGAEVKKPGASVKVSCKASGYTFTGYYMHWVRQAPGQGLEWMGWMNPNIGNTGYAQKFQGRVTMTRDTSTSTVYMELSSLRSEDTAVYYCARGIADSGSYYGNGRDYYYGMDVWGQGTTVTVSS VL: DIVMTQSPDSLAVSLGERATINCKTSQSVLYRPNNENYLAWYQQKPGQPPKLLIYQASIREPGVPDRFSGSGSGTDFTLTISSLQAEDVAVYYCQQYYTTPYTFGQGTKLEIK )
result: ≥ 3 fold

query: Input scFv G5-P1C12 (scFv, V domains shown) VH: QVQLVQSGAEVKKPGSSVKVSCKASGGTFSNFGVSWLRQAPGQGLEWMGGIIPILGTANYAQKFQGRVTITADESTSTAYMELSSLRSEDTAVYYCATPTNSGYYGPYYYYGMDVWGQGTTVTVSS VL: DIQMTQSPSSLSASVGDRVTITCRASQSISSWLAWYQQKPGKAPKLLIYAASTLQSGVPSRFSGSGSGTDFTLTISSLQPEDFATYYCQQSYSIPLTFGGGTKVEIK
result: ≥ 3 fold

query: Next record, please: scFv G5R4-P1H11 (scFv, V domains shown) VH: EVQLLESGGGLVKPGGSLRLSCAASGFTFSDYYMSWVRQAPGKGLEWVSYISSSSSYTNYADSVKGRFTISRDDSKNTLYLQMNSLKTEDTAVYYCARDVVANFDYWGQGTLVTVSS VL: EIVMTQSPATLSVSPGERATLSCRASQSVSSNLAWYQQKPGQAPRLLIYAASARASGIPARFSGSGSGTEFTLTISSLQSEDFAVYYCQQYGSWPRTFGQGTKVEIK
result: ≥ 3 fold

query: Now consider scFv G5R4-P3G05 (scFv, V domains shown) VH: QVQLVQSGAEVKKPGASVKVSCKASGYTFTNYYMHWVRQAPGQGLEWMGIINPSGGSTSYAQKFQGRVTMTRDTSTSTVYMELSSLRSEDTAVYYCARSWFGGFNYHYYGMDVWGQGTTVTVSS VL: DIQMTQSPSSLSASVGDRVTITCQASEDISNHLNWYQQKPGKAPKLLIYDALSLQSGVPSRFSGSGSGTDFTLTISSLQPEDFATYYCQQANSFPFTFGPGTKVDIK .
result: ≥ 3 fold

Proceed to the following item.
query: Need fold binding to target pHLA over minipool of negative control pHLAs of scFv G5-P4E04 (scFv, V domains shown) VH: QVQLVQSGAEVKKPGASVKVSCKASGGTFSSYGISWVRQAPGQGLEWMGWINPNSGVTKYAQKFQGRVTMTRDTSTSTVYMELSSLRSEDTAVYYCARGDYYFDYWGQGTLVTVSS VL: DIQMTQSPSSLSASVGDRVTITCRASQSISRFLNWYQQKPGKAPKLLIYGASRPQSGVPSRFSGSGSGTDFTLTISSLQPEDFATYYCQQSYSTPLTFGQGTKVEIK , thanks.
result: ≥ 3 fold
